target: CCL2 (Homo sapiens, UniProt P13500); experiment: Chemokine glycan microarray binding assay; conditions: maximum RFU set as 100% binding, average across 2 glycan concentrations and 3 chemokine dilutions (n=6)
Sequence (P13500 24-99, species assumed): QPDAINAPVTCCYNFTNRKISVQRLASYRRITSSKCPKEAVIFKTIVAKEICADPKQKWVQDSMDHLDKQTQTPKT
Measured Property: mean rank binding to CCL2 (%)

The cases that follow already have their mean rank binding to CCL2 on record.
{"columns": ["Compound", "Unit Annotation", "mean rank binding to CCL2"],
 "data": [
  ["NCCOCCO[C@@H]1O[C@@H](C(=O)O)[C@@H](O[C@@H]2O[C@@H](C(=O)O)[C@@H](O[C@@H]3O[C@@H](C(=O)O)[C@@H](OS(=O)(=O)O)[C@H](O)[C@H]3OS(=O)(=O)O)[C@H](O)[C@H]2OS(=O)(=O)O)[C@H](O)[C@H]1OS(=O)(=O)O [Example 9]", "%", 66],
  ["NCCOCCO[C@@H]1OC(C(=O)O)[C@@H](O[C@@H]2OC(C(=O)O)[C@@H](O[C@@H]3OC(C(=O)O)[C@@H](O[C@@H]4OC(C(=O)O)[C@@H](O)C(O)C4O)C(O)C3O)C(O)C2O)C(O)C1O (stereo partly drawn) [Example 10]", "%", 69],
  ["CC(=O)NC1C(O)[C@H](O)C(COS(=O)(=O)O)O[C@@H]1O[C@@H]1C(C(=O)O)O[C@@H](O[C@@H]2C(COS(=O)(=O)O)O[C@H](O[C@@H]3C(C(=O)O)O[C@@H](OCCCN)C(O)C3O)C(NC(C)=O)C2O)C(O)C1O (stereo partly drawn) [Example 24]", "%", 13]
]}

A. NCCOCCO[C@@H]1OC(C(=O)O)[C@@H](O)C(O)C1O (stereo partly drawn) [Example 1]
B. CC(=O)NC1C(O)[C@H](O)C(CO)O[C@@H]1O[C@@H]1C(C(=O)O)O[C@@H](O[C@@H]2C(CO)O[C@H](O[C@@H]3C(C(=O)O)O[C@@H](OCCCN)C(O)C3O)C(NC(C)=O)C2O)C(O)C1O (stereo partly drawn) [Example 16]
Ask: // which entry reports the smaller mean rank binding to CCL2, A or B ? Write down the label attached to your selection.
Reply: B
(B: 0%, A: 4%)

I. NCCCO[C@@H]1OC(C(=O)O)[C@@H](O[C@H]2OC(CO)[C@@H](O[C@@H]3OC(C(=O)O)[C@@H](O[C@H]4OC(CO)[C@@H](O)C(O)C4N)C(O)C3O)C(O)C2N)C(O)C1O (stereo partly drawn) [Example 15]
II. NCCOCCO[C@@H]1O[C@@H](C(=O)O)[C@@H](O[C@@H]2O[C@@H](C(=O)O)[C@@H](OS(=O)(=O)O)[C@H](O)[C@H]2O)[C@H](O)[C@H]1O [Example 5]
III. CC(=O)NC1C(O)[C@H](O)C(CO)O[C@@H]1O[C@@H]1C(C(=O)O)O[C@@H](O[C@@H]2C(CO)O[C@H](O[C@@H]3C(C(=O)O)O[C@@H](OCCCN)C(OS(=O)(=O)O)C3O)C(NC(C)=O)C2O)C(OS(=O)(=O)O)C1O (stereo partly drawn) [Example 14]
Ask: Order the 3 compounds from highest to lowest mean rank binding to CCL2. Field: ranking. Enter the labels in the order requested.
Reply: II, I, III

====

target: CCL7 (Homo sapiens, UniProt P80098); assay: Chemokine glycan microarray binding assay; conditions: maximum RFU set as 100% binding, average across 2 glycan concentrations and 3 chemokine dilutions (n=6)
Sequence (P80098 24-99, species assumed): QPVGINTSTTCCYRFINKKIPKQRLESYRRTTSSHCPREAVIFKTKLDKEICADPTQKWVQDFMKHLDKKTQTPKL
Measured Property: mean rank binding to CCL7 (%)

I. CC(=O)NC1C(O)[C@H](O)C(CO)O[C@@H]1O[C@@H]1C(C(=O)O)O[C@@H](O[C@@H]2C(CO)O[C@H](O[C@@H]3C(C(=O)O)O[C@@H](OCCCN)C(O)C3O)C(NC(C)=O)C2O)C(O)C1O (some centres unmarked)
II. NCCOCCO[C@@H]1O[C@@H](C(=O)O)[C@@H](O[C@@H]2O[C@@H](C(=O)O)[C@@H](OS(=O)(=O)O)[C@H](O)[C@H]2O)[C@H](O)[C@H]1O
III. NCCOCCO[C@@H]1O[C@@H](C(=O)O)[C@@H](O[C@@H]2O[C@@H](C(=O)O)[C@@H](O[C@@H]3O[C@@H](C(=O)O)[C@@H](OS(=O)(=O)O)[C@H](O)[C@H]3OS(=O)(=O)O)[C@H](O)[C@H]2OS(=O)(=O)O)[C@H](O)[C@H]1OS(=O)(=O)O
Ask: List these items ordered by mean rank binding to CCL7, big to small. Enter labels, ranked according to the request.
Reply: III, II, I

====

Molecular target: UniProt:Q9NRJ3
Sequence (Q9NRJ3 20-127): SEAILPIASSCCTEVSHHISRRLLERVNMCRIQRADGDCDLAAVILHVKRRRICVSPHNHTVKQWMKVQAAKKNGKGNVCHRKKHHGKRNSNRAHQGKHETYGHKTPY
Test: Chemokine glycan microarray binding assay
Details: maximum RFU set as 100% binding, average across 2 glycan concentrations and 3 chemokine dilutions (n=6)
Measured Property: mean rank binding to CCL28 (%)

{"columns": ["Molecule", "mean rank binding to CCL28 [%]"],
 "data": [
  ["NCCCO[C@@H]1OC(C(=O)O)[C@@H](O[C@H]2OC(CO)[C@@H](O[C@@H]3OC(C(=O)O)[C@@H](O[C@H]4OC(CO)[C@@H](O)C(O)C4N)C(O)C3O)C(O)C2N)C(O)C1O (stereo partly shown)", 36],
  ["NCCCO[C@@H]1OC(C(=O)O)[C@@H](O[C@H]2OC(COS(=O)(=O)O)[C@@H](O[C@@H]3OC(C(=O)O)[C@@H](O[C@H]4OC(COS(=O)(=O)O)[C@@H](O)C(O)C4N)C(O)C3OS(=O)(=O)O)C(O)C2N)C(O)C1OS(=O)(=O)O (stereo partly shown)", 79],
  ["CC(=O)NC1C(O)[C@H](O)C(CO)O[C@@H]1O[C@@H]1C(C(=O)O)O[C@@H](O[C@@H]2C(CO)O[C@H](O[C@@H]3C(C(=O)O)O[C@@H](OCCCN)C(O)C3O)C(NC(C)=O)C2O)C(O)C1O (stereo partly shown)", 22]
]}

a. NCCOCCO[C@@H]1O[C@@H](C(=O)O)[C@@H](O[C@@H]2O[C@@H](C(=O)O)[C@@H](OS(=O)(=O)O)[C@H](O)[C@H]2OS(=O)(=O)O)[C@H](O)[C@H]1OS(=O)(=O)O
b. NCCOCCO[C@@H]1OC(C(=O)O)[C@@H](O[C@@H]2OC(C(=O)O)[C@@H](O)C(O)C2O)C(O)C1O (stereo partly shown)
Ask: Returns: the label, a or b , whose recorded mean rank binding to CCL28 is the lower number. Lab note: record the label of whichever item you select.
Reply: b
(b: 56%, a: 84%)

====

Biological target: UniProt:P10145
Sequence (P10145 21-99): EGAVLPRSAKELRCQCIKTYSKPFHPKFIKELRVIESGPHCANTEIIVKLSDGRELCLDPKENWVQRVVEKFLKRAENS
Test: Chemokine glycan microarray binding assay
Conditions: maximum RFU set as 100% binding, average across 2 glycan concentrations and 3 chemokine dilutions (n=6)
Measured Property: mean rank binding to CXCL8 (%)

A. NCCOCCO[C@@H]1O[C@@H](C(=O)O)[C@@H](O[C@@H]2O[C@@H](C(=O)O)[C@@H](O[C@@H]3O[C@@H](C(=O)O)[C@@H](OS(=O)(=O)O)[C@H](O)[C@H]3O)[C@H](O)[C@H]2O)[C@H](O)[C@H]1O
B. NCCCO[C@@H]1O[C@@H](C(=O)O)[C@@H](O[C@H]2O[C@H](CO)[C@@H](O[C@@H]3O[C@@H](C(=O)O)[C@@H](O[C@H]4O[C@H](CO)[C@@H](O)[C@H](OS(=O)(=O)O)[C@H]4N)[C@H](O)[C@H]3O)[C@H](OS(=O)(=O)O)[C@H]2N)[C@H](O)[C@H]1O
Ask: # min-compare on mean rank binding to CXCL8 between A and B I would appreciate it if you answered with the label of your choice.
Reply: A
(A: 13%, B: 51%)

====

target: CCL21 (Homo sapiens); assay: Chemokine glycan microarray binding assay; conditions: maximum RFU set as 100% binding, average across 2 glycan concentrations and 3 chemokine dilutions (n=6)
Sequence (O00585 24-134, species assumed): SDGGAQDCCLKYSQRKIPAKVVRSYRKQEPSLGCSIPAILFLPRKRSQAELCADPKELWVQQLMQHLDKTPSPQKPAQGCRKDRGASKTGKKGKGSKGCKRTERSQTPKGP
Measured Property: mean rank binding to CCL21 (%)

// worked examples, mean rank binding to CCL21 included
{"columns": ["Compound", "mean rank binding to CCL21 / %"],
 "data": [
  ["CC(=O)NC1C(O)[C@H](O)C(COS(=O)(=O)O)O[C@@H]1O[C@@H]1C(C(=O)O)O[C@@H](O[C@@H]2C(COS(=O)(=O)O)O[C@H](O[C@@H]3C(C(=O)O)O[C@@H](OCCCN)C(O)C3O)C(NC(C)=O)C2O)C(O)C1O (stereo partly drawn)", 79],
  ["NCCOCCO[C@@H]1OC(C(=O)O)[C@@H](O)C(O)C1O (stereo partly drawn)", 52],
  ["NCCOCCO[C@@H]1O[C@@H](C(=O)O)[C@@H](O[C@@H]2O[C@@H](C(=O)O)[C@@H](O[C@@H]3O[C@@H](C(=O)O)[C@@H](O[C@@H]4O[C@@H](C(=O)O)[C@@H](OS(=O)(=O)O)[C@H](O)[C@H]4O)[C@H](O)[C@H]3O)[C@H](O)[C@H]2O)[C@H](O)[C@H]1O", 80],
  ["NCCOCCO[C@@H]1O[C@@H](C(=O)O)[C@@H](OS(=O)(=O)O)[C@H](O)[C@H]1O", 63]
]}

1. CC(=O)NC1C(O)[C@H](O)C(CO)O[C@@H]1O[C@@H]1C(C(=O)O)O[C@@H](O[C@@H]2C(CO)O[C@H](O[C@@H]3C(C(=O)O)O[C@@H](OCCCN)C(OS(=O)(=O)O)C3O)C(NC(C)=O)C2O)C(OS(=O)(=O)O)C1O (stereo partly drawn)
2. NCCCO[C@@H]1OC(C(=O)O)[C@@H](O[C@H]2OC(CO)[C@@H](O[C@@H]3OC(C(=O)O)[C@@H](O[C@H]4OC(CO)[C@@H](O)C(O)C4N)C(O)C3O)C(O)C2N)C(O)C1O (stereo partly drawn)
Ask: // compare: 1 vs 2 , metric mean rank binding to CCL21, want the smaller Pick one and reply with its label.
Reply: 1
(1: 23%, 2: 62%)

The values you see were collected from patent US20260207654A1.
